- Test system: human rhabdomyosarcoma (RD) cell line
- EXPERIMENT NOTES: Cytotoxicity (MTS) in RD cells
- Type: cell-based

{"COMPOUND": "Cc1cc(C(=O)N[C@@H](Cc2cccc3ccccc23)C(=O)N[C@@H](CC(C)C)C(=O)NC(C=O)C[C@@H]2CCCNC2=O)no1 (stereo partly shown)", "CC50": "> 100 µM"}

* * *

- EXPERIMENT NOTES: Cytotoxicity (MTS) in RD cells
- Assay type: cell-based, human
- MEASUREMENT CONDITIONS: human, RD (rhabdomyosarcoma) cells
PROPERTY NAME: CC50 (µM)

{"MOLECULE": "CC(C)C[C@H](NC(=O)[C@H](Cc1ccc(F)cc1)NC(=O)c1cnccn1)C(=O)N[C@H](C=O)C[C@@H]1CCNC1=O", "COMPARISON OPERATOR": ">", "OBSERVED VALUE": 100}
{"MOLECULE": "CC(C)C[C@H](NC(=O)[C@H](Cc1ccc(F)cc1)NC(=O)OCc1ccccc1)C(=O)N[C@H](C=O)C[C@@H]1CCNC1=O", "COMPARISON OPERATOR": ">", "OBSERVED VALUE": 100}
{"MOLECULE": "COC(=O)C1O[C@@H]1[C@H](C[C@@H]1CCNC1=O)NC(=O)[C@H](CC(C)C)NC(=O)[C@H](Cc1cccc2ccccc12)NC(=O)OCc1ccccc1 (stereo partly drawn)", "COMPARISON OPERATOR": "=", "OBSERVED VALUE": 80.2}
{"MOLECULE": "CC(C)C[C@H](NC(=O)[C@H](Cc1cccc2ccccc12)NC(=O)OCc1ccccc1)C(=O)N[C@@H](CC1CCNC1=O)[C@H]1O[C@@H]1S(C)(=O)=O (stereo partly drawn)", "COMPARISON OPERATOR": ">", "OBSERVED VALUE": 100}
{"MOLECULE": "CC(C)C[C@H](NC(=O)[C@H](Cc1cccc2ccccc12)NC(=O)OCCc1ccccc1)C(=O)N[C@H](C=O)C[C@@H]1CCNC1=O", "COMPARISON OPERATOR": "=", "OBSERVED VALUE": 42.5}
{"MOLECULE": "CC(C)C[C@H](NC(=O)[C@H](Cc1cccc2ccccc12)NC(=O)OCc1ccccc1)C(=O)N[C@@H](C[C@@H]1CCCNC1=O)C(O)C(F)(F)F (stereo partly drawn) [drawing 125]", "COMPARISON OPERATOR": "=", "OBSERVED VALUE": 25}

* * *

- EXPERIMENT NOTES: Cellular toxicity assay in Huh7 cells
- Type: cell-based
- MEASUREMENT CONDITIONS: human, read-out: Cytotoxicity, CC50, Huh7
PROPERTY NAME: CC50 (µM)

{"MOLECULAR STRING": "CC(C)C[C@H](NC(=O)[C@H](Cc1ccc(F)cc1)NC(=O)OCc1ccccc1)C(=O)N[C@H](C=O)C[C@@H]1CCCNC1=O", "OBSERVED VALUE": 60}

* * *

- Test system: Enterovirus EV-71 (BrCr strain)
- EXPERIMENT NOTES: Anti-enterovirus activity, EV-71 virus yield reduction (qRT-PCR) in RD cells
- Format: cell-based
- MEASUREMENT CONDITIONS: given as IC90, read-out: IC90 against Enterovirus EV-71 (BrCr strain)

{"MOLECULE": "CC(C)C[C@H](NC(=O)[C@@H](Cc1cccc2ccccc12)NC(=O)OCc1ccccc1)C(=O)N[C@H](C=O)C[C@@H]1CCCNC1=O", "MEASURED ON": "Enterovirus EV-71 (BrCr strain)", "IC90": "30 nM"}
{"MOLECULE": "CC(C)C[C@H](NC(=O)[C@H](Cc1ccc(F)cc1)NC(=O)c1cnccn1)C(=O)N[C@H](C=O)C[C@@H]1CCNC1=O", "MEASURED ON": "Enterovirus EV-71 (BrCr strain)", "IC90": "570 nM"}
{"MOLECULE": "CC(C)C[C@H](NC(=O)[C@H](Cc1ccc(F)cc1)NC(=O)OCc1ccccc1)C(=O)N[C@H](C=O)C[C@@H]1CCCNC1=O [drawing 135]", "MEASURED ON": "Enterovirus EV-71 (BrCr strain)", "IC90": "29.1 nM"}
{"MOLECULE": "CC(C)C[C@H](NC(=O)[C@H](Cc1cccc2ccccc12)NC(=O)OCc1ccccc1)C(=O)N[C@@H](C[C@@H]1CCCNC1=O)C(O)S(=O)(=O)O (some centres unmarked) [drawing 134]", "MEASURED ON": "Enterovirus EV-71 (BrCr strain)", "IC90": "30 nM"}
{"MOLECULE": "CC(C)C[C@H](NC(=O)[C@H](Cc1cccc2ccccc12)NC(=O)c1cnccn1)C(=O)N[C@H](C=O)C[C@@H]1CCNC1=O", "MEASURED ON": "Enterovirus EV-71 (BrCr strain)", "IC90": "64 nM"}
